Values compiled from patent US10214492B2.

Experiment: Metabolic stability in mouse liver microsomes (in vitro t1/2)
Assay type: in vitro ADME
Conditions: mouse liver microsomes, 60 min
The entries below are paired with their reported Mouse microsome % 60 min.
# number only, unit % dropped from output

Here is how some compounds turned out for Mouse microsome % 60 min.
{"columns": ["STRUCTURE STRING", "Mouse microsome % 60 min, %"],
 "data": [
  ["CC(C)(OCc1cc(-c2cccc(OC3CCC3)c2)n(-c2ccccc2Cl)n1)C(=O)O", 94],
  ["CC(C)(C)COc1cccc(-c2cc(COC(C)(C)C(=O)O)nn2-c2ccccc2Cl)c1", 87]
]}

Consider COc1cc(OC)cc(-c2cc(COC(C)(C)C(=O)O)nn2-c2ccccc2Cl)c1 . Its measured Mouse microsome % 60 min is 98
